- subject_of_test: Ecdysone receptor (Drosophila melanogaster, UniProt P20153+P34021)
- assay_remarks: Agonist activity at ecdysone receptor in Drosophila melanogaster Kc cells after 24 hr by luciferase reporter gene assay
pEC50: −log10 of the molar value.
This listing pairs compounds with measured pEC50.

Record excerpt, results attached:
[
  {
    "cpd_smiles": "CC(C)(C)N(NC(=O)c1c(F)cccc1F)C(=O)c1ccccc1Cl",
    "metric_name": "pEC50",
    "value_reported": "< 4.00"
  },
  {
    "cpd_smiles": "CC(=O)c1ccc(C(=O)NN(C(=O)c2ccccc2Cl)C(C)(C)C)cc1",
    "metric_name": "pEC50",
    "value_reported": "< 4.00"
  },
  {
    "cpd_smiles": "CC(C)(C)N(NC(=O)c1ccc(-c2ccccc2)cc1)C(=O)c1ccccc1Cl",
    "metric_name": "pEC50",
    "value_reported": "< 4.00"
  }
]

Let us examine a further case.
pEC50 reported for this compound `CC(C)(C)N(NC(=O)c1ccc(Br)cc1)C(=O)c1ccccc1Cl` : 5.16

###

- subject_of_test: Ecdysone receptor (Drosophila melanogaster, UniProt P20153+P34021)
- assay_remarks: Agonist activity at ecdysone receptor in Drosophila melanogaster S2 cells after 24 hr by luciferase reporter gene assay
- Format: cell-based
metric_name: pEC50
Please keep in mind that pEC50 is minus log10 of the molar concentration; only the number is needed.

[
  {
    "cpd_smiles": "CCc1ccc(C(=O)NN(C(=O)c2cccc3ccccc23)C(C)(C)C)cc1",
    "pEC50": 4.98
  }
]

Entry `CC(C)(C)N(NC(=O)c1ccccc1F)C(=O)c1ccccc1Cl` — recorded pEC50 = 4.47

For record `CC(C)(C)N(NC(=O)c1cccc(Br)c1)C(=O)c1ccccc1Cl` the listed pEC50 is 4.88

# compound `CC(C)c1ccc(C(=O)NN(C(=O)c2ccccc2Cl)C(C)(C)C)cc1` ; its pEC50 = 4.92

Entry `Cc1cc(C)cc(C(=O)N(NC(=O)c2ccccc2)C(C)(C)C)c1` , pEC50 reported as 4.18

The compound identified as `CC(C)(C)N(NC(=O)c1ccccc1)C(=O)c1ccccc1I` registered its pEC50 at 4.04

Looking up `CCc1ccccc1C(=O)N(NC(=O)c1ccccc1)C(C)(C)C` , I see its pEC50 listed as 4.01

The reported value for `CC(C)(C)N(NC(=O)c1cccc(Cl)c1)C(=O)c1ccccc1Cl` in terms of pEC50 is 4.78

compound `CC(C)(C)N(NC(=O)c1ccccc1Br)C(=O)c1ccccc1Cl` , pEC50 observed: 4.22

###

- subject_of_test: Ecdysone receptor (Drosophila melanogaster, UniProt P20153+P34021)
- Sequence (P34021 whole entry): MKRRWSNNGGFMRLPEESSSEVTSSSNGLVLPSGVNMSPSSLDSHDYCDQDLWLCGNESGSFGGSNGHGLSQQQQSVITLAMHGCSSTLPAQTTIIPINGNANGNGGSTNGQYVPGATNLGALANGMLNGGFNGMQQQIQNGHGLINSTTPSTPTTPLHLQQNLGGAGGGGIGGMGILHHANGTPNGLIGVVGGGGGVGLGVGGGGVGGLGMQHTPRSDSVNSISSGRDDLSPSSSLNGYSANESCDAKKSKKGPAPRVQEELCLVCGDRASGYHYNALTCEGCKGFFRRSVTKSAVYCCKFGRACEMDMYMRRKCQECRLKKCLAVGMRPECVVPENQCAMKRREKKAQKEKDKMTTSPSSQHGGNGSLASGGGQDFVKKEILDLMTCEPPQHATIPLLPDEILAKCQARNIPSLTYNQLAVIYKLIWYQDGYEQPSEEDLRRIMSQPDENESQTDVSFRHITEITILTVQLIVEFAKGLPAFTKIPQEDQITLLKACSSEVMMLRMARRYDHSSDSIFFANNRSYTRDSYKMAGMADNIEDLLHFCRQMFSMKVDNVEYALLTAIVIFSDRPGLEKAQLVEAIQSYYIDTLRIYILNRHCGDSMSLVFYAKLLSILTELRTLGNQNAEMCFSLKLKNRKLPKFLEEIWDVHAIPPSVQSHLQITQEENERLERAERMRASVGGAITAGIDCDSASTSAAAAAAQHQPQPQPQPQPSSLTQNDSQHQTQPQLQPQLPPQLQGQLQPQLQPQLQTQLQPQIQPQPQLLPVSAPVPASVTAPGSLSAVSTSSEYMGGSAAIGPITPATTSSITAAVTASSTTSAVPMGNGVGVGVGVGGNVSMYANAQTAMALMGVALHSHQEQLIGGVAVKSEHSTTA
- Sequence (P20153 whole entry): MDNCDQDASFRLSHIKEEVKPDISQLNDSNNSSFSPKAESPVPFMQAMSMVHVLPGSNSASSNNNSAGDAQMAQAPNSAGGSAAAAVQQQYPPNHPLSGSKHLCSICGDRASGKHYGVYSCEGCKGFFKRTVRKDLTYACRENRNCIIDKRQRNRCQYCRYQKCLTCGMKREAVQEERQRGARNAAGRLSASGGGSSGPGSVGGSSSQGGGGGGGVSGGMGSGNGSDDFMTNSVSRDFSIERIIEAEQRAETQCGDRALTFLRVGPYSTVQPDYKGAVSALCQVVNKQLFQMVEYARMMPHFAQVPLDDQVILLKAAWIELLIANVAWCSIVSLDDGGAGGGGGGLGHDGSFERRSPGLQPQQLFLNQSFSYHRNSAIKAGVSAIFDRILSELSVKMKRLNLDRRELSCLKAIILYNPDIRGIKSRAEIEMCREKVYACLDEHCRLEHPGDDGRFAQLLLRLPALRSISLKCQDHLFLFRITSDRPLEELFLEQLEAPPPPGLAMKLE
- assay_remarks: Agonist activity at ecdysone receptor in Drosophila melanogaster B2 cells assessed as reduction in cell density
Entries and their measured log10(EC50) follow.
Use the decimal logarithm of EC50 (nM).

[
  {
    "compound": "CC(C)(C)N(NC(=O)c1ccccc1)C(=O)c1ccccc1",
    "subject_of_test": "Ecdysone receptor (Drosophila melanogaster, UniProt P20153+P34021)",
    "log10(EC50)": 3.26
  }
]

Measured log10(EC50) of `Cc1ccccc1C(=O)N(NC(=O)c1ccccc1)C(C)(C)C` : 3.58

The value of log10(EC50) measured for the compound `CC(C)(C)N(NC(=O)c1cccc(Cl)c1)C(=O)c1ccccc1Cl` turned out to be 3.08

Lab note: measured log10(EC50) of `CC(C)(C)N(NC(=O)c1ccccc1)C(=O)c1ccccc1C(F)(F)F` was 3.56

For record `CC(C)(C)N(NC(=O)c1ccccc1)C(=O)c1ccccc1I` the listed log10(EC50) is 3.08

Recorded result, `CC(C)(C)N(NC(=O)c1ccccc1Cl)C(=O)c1ccccc1Cl` , log10(EC50): 3.41

Lab note: measured log10(EC50) of `CC(C)(C)N(NC(=O)c1ccccc1)C(=O)c1ccccc1F` was 3.79

Form field log10(EC50), entry CCc1ccc(C(=O)NN(C(=O)c2cc(C)cc(C)c2)C(C)(C)C)cc1 [TEBUFENOZIDE] : 2.72

The reported value for `COc1ccccc1C(=O)N(NC(=O)c1ccccc1)C(C)(C)C` in terms of log10(EC50) is 3.58

So for `CC(C)(C)N(NC(=O)c1ccccc1)C(=O)c1ccccc1Br` , the logged log10(EC50) turned out to be 2.90
